Target: CRF1 receptors (Homo sapiens, UniProt P34998)
Construct: endogenous in cells; host or cells: IMR-32 cells, transformed with 2.5 µM 5'-bromo-2'-deoxyuridine for 10 days; membrane preparation
Sequence (P34998 24-415): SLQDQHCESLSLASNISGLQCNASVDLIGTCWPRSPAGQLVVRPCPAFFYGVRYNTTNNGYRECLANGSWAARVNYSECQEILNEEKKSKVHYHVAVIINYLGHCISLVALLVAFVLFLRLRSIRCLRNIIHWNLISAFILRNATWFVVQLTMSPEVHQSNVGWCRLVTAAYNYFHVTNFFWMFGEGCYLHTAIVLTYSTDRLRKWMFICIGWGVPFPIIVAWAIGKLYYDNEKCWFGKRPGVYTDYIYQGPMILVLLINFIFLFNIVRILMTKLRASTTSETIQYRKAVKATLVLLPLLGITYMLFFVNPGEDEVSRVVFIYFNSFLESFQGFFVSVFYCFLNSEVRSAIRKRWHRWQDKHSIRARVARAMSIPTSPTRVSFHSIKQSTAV
Assay: CRF1 receptor radioligand binding assay ([125I]-oCRF competition, IMR-32 cell membranes)
Settings: IMR-32 cell membranes, [125I]-oCRF 100 pM; read-out: Ki (CRF-1R)
Protocol: CRF1 receptor antagonists, by occupying the same receptors, blocks the accessibility of the receptors to CRF, a hypothalamic factor mediating body's responses to physiological and psychological stress. […] Radioligand binding assays. […] IC50 values for oCRF and test compounds were calculated by nonlinear regression using a one-site binding curve (GraphPad Prism).
outcome measure: Ki

Some compounds with recorded Ki:
compound: CCCN(Cc1c(C(F)(F)F)nc2n1CCCN2c1c(C)cc(C)cc1C)CC1CC1
Ki: < 100 nM

compound: CCCCN(CC)Cc1c(C(F)(F)F)nc2n(-c3ccc(C(C)C)cc3Br)c3ccccc3n12
Ki: < 10000 nM

compound: CCCN(CCC)Cc1c(CC)nc2n(-c3ccc(Cl)cc3Cl)c(Cl)cn12
Ki: < 100 nM

Just so you know, measured Ki for CCN(Cc1c(C(F)(F)F)nc2n(-c3ccc(Cl)cc3Cl)c3ccccc3n12)CC1CC1 came out at < 10000 nM

Entry Cc1cc(C)c(N2CCCn3c2nc(C(F)(F)F)c3CN2CCC(c3ccccc3)C2)c(C)c1 (stereo not shown) , Ki reported as < 1000 nM

The compound listed as Cc1cc(C)c(-n2c(Cl)cn3c(CN4CCC(c5ccccc5)C4)c(C(F)(F)F)nc23)c(C)c1 (stereo not shown) shows Ki equal to < 1000 nM

CCN(Cc1ccccc1)Cc1c(C(F)(F)F)nc2n(-c3c(C)cc(C)cc3C)c3ccccc3n12 has a reported Ki of < 10000 nM
